Experiment: TOR pathway GLN3 branch reporter MEP2-GFP changes – S. cerevisiae, multiplex flow cytometry, MLPCN library, primary screen (AID 2016);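 further: median GFP fluorescence of the barcode-gated MEP2-GFP cells per well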
Conditions: S. cerevisiae MEP2-GFP strain, 3 h, at 10 µM, 100% = DMSO control level
Among all 330,000 compounds or so, about 1,700 (0.52%) were called active.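 How the source made its calls: active means GFP response versus DMSO above a set limit, roughly screen mean plus 3 SD (cut at about 180% in these data); inconclusive means fewer than 70 cells counted for a yeast strain; inactive means the rest.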 The full list was thinned out, with actives kept by preference.
// one of active, inactive, no free text

Below, 5 compounds whose answers are already recorded.
O=C(CC1SC(=Nc2ccccc2F)N(CCN2CCOCC2)C1=O)Nc1ccc(F)cc1F (stereo not given) :: active
Cc1nccn1CC(=O)N/N=C/c1ccc(O)c(O)c1 :: inactive
NCCCCCC(=O)N/N=C/c1ccc2nccnc2c1 :: active
O=C(NCC(=O)N1CCN(c2ccccc2F)CC1)c1cccs1 :: inactive
Cc1ccc(C(=O)Nc2c(C#N)c(C)c(C)n2Cc2ccccc2)cc1 :: active

Exercise: What is the recorded call for this compound in the test? CC(C)(C)NC(=O)C(c1ccco1)N(Cc1ccc2c(c1)OCO2)C(=O)Cn1nnc2ccccc21 (stereo not given)
Key: inactive
